- Measurement target: Rat brain protein farnesyltransferase (Rattus norvegicus, UniProt Q02293+Q04631)
- Construct: The enzyme is purified according to Reiss, Y., et al., Cell, 62: 81-88 (1990), utilizing steps one through three; from tissue; host or cells: rat brain
- Assay notes: In vitro inhibition of protein farnesyltransferase, Amersham scintillation proximity assay with biotin-K Ras B fragment
- Type: biochemical
- Reported conditions: Inhibition of farnesyltransferase; compound at 1 × 10^−8 M (Table 4); read-out: % inhibition at 1 × 10^−8 M
Assignment: determine reported inhibition at 0.01 µM for the given molecules.
Dear colleague, please return just the value in %, with no unit written.

Query :: # lookup: inhibition at 0.01 µM of CSCC[C@H](NC(=O)c1ccc(CN(Cc2ccccc2)c2cccnc2)cc1-c1ccccc1C(F)(F)F)C(=O)O
Result :: 84

Query :: # lookup: inhibition at 0.01 µM of COc1ccccc1-c1cc(NCc2cnc[nH]2)ccc1C(=O)N[C@@H](CC(C)C)C(=O)O
Result :: 50

Query :: # lookup: inhibition at 0.01 µM of CSCC[C@@H](NC(=O)c1ccc(CNc2cccnc2)cc1-c1ccccc1C)C(=O)O (stereo in doubt)
Result :: 98

Query :: # lookup: inhibition at 0.01 µM of CSCC[C@H](NC(=O)c1ccc(COc2cccnc2)cc1-c1ccccc1)C(=O)NS(=O)(=O)N1CCN(C)CC1
Result :: 66

Query :: # lookup: inhibition at 0.01 µM of CSCC[C@H](NC(=O)c1ccc(COc2cccnc2)cc1-c1ccc(F)cc1Cl)C(=O)O
Result :: 94

Query :: # lookup: inhibition at 0.01 µM of CSCC[C@H](NC(=O)c1ccc(COc2cccnc2)cc1-c1ccccc1)C(=O)NS(=O)(=O)N1CCSCC1
Result :: 94

Query :: # lookup: inhibition at 0.01 µM of CSCC[C@H](NC(=O)c1cc(Cc2ccccc2)c(CN(Cc2ccccc2)c2cccnc2)cc1-c1ccccc1C)C(=O)O
Result :: 96

Query :: # lookup: inhibition at 0.01 µM of CSCC[C@H](NC(=O)c1ccc(NCc2c[nH]cn2)cc1-c1ccccc1C)C(=O)O
Result :: 91

Query :: # lookup: inhibition at 0.01 µM of CSCC[C@H](NC(=O)c1ccc(CN(Cc2ccccc2)c2cncc(F)c2)cc1-c1ccccc1C)C(=O)O
Result :: 94

Query :: # lookup: inhibition at 0.01 µM of CSCC[C@H](NC(=O)c1ccc(CN(Cc2ccccc2)c2cccnc2)cc1-c1ccc(F)cc1Cl)C(=O)O
Result :: 97

Query :: # lookup: inhibition at 0.01 µM of CC[C@H](NC(=O)c1ccc(COc2cccnc2)cc1-c1ccccc1)C(=O)O
Result :: 95

Query :: # lookup: inhibition at 0.01 µM of CSCC[C@H](NC(=O)c1cc(CCc2ccccc2)c(COc2cccnc2)cc1-c1ccccc1C)C(=O)O
Result :: 96

====

- Measurement target: Rat brain protein farnesyltransferase (Rattus norvegicus, UniProt Q02293+Q04631)
- Construct: The enzyme is purified according to Reiss, Y., et al., Cell, 62: 81-88 (1990), utilizing steps one through three; from tissue; host or cells: rat brain
- Assay notes: In vitro inhibition of protein farnesyltransferase, Amersham scintillation proximity assay with biotin-K Ras B fragment
- Type: biochemical
- Reported conditions: Inhibition of farnesyltransferase; compound at 1 × 10^−6 M (Table 2); read-out: % inhibition at 1 × 10^−6 M
- Method: The ability of the compounds of the invention to inhibit protein farnesyltransferase or protein geranylgeranyltransferase can be measured according to the method of Moores, et al., J. Biol. Chem. 266: 14603 (1991) or the method of Vogt, et al., J. Biol. Chem. 270:660-664 (1995). […] In addition, in vitro inhibition of protein farnesyltransferase may be measured by the following procedure. […] The % inhibition of protein farnesyltransferase was determined for representative compounds of the invention.
Counter-ions that a name gives are not always drawn.
// Condition not met strictly below 60% in inhibition at 1 µM; Condition met otherwise

Query :: Exam item: decide whether the reported inhibition at 1 µM for Cc1ccccc1-c1cc(/C=C/c2cnc3ccccc3c2)ccc1C(=O)N[C@@H](CC[S+](C)[O-])C(=O)O (stereo partly drawn) [Example 488, Lithium Salt] is at least 60%.
Result :: Condition not met

Query :: Exam item: decide whether the reported inhibition at 1 µM for CSCC[C@H](NC(=O)c1ccc(CNc2cccnc2)cc1-c1ccccc1)C(=O)O is at least 60%.
Result :: Condition met

Query :: Exam item: decide whether the reported inhibition at 1 µM for CCN(CC)C(=O)COC(=O)[C@H](CCSC)NC(=O)c1ccc(CN(Cc2ccccc2)c2cccnc2)cc1-c1ccccc1C is at least 60%.
Result :: Condition met

Query :: Exam item: decide whether the reported inhibition at 1 µM for COc1ccc(-c2cc(COc3cccnc3)ccc2C(=O)N[C@@H](CCSC)C(=O)O)cc1 is at least 60%.
Result :: Condition met

Query :: Exam item: decide whether the reported inhibition at 1 µM for COC(=O)[C@H](CCSC)NC(=O)c1ccc(NCc2cccnc2)cc1-c1ccccc1C is at least 60%.
Result :: Condition met

Query :: Exam item: decide whether the reported inhibition at 1 µM for CSCC[C@H](NC(=O)c1ccc(NCc2cccnc2)cc1-c1ccccc1C)C(=O)O is at least 60%.
Result :: Condition met

Query :: Exam item: decide whether the reported inhibition at 1 µM for COC(=O)[C@H](CCSC)N(C)C(=O)c1ccc(CNc2cccnc2)cc1-c1ccccc1 is at least 60%.
Result :: Condition not met

Query :: Exam item: decide whether the reported inhibition at 1 µM for CSCC[C@H](NC(=O)c1cc(-c2cc(Cl)cc(Cl)c2)c(COc2cccnc2)cc1-c1ccccc1C)C(=O)O is at least 60%.
Result :: Condition met

Query :: Exam item: decide whether the reported inhibition at 1 µM for CSCC[C@H](NC(=O)c1ccc(CN(Cc2ccccc2)c2cccnc2)cc1-c1ccccc1C)C(=O)OCOC(C)=O is at least 60%.
Result :: Condition met

Query :: Exam item: decide whether the reported inhibition at 1 µM for CSCC[C@H](NC(=O)c1ccc(Sc2cccnc2)cc1-c1ccccc1)C(=O)O is at least 60%.
Result :: Condition not met

Query :: Exam item: decide whether the reported inhibition at 1 µM for CCCCc1cc(C(=O)N[C@@H](CCSC)C(=O)O)c(-c2ccccc2C)cc1COc1cccnc1 is at least 60%.
Result :: Condition met

Query :: Exam item: decide whether the reported inhibition at 1 µM for CSCC[C@H](NC(=O)c1ccc(C(O)c2ccncc2)cc1-c1ccccc1)C(=O)O (stereo partly drawn) [Example 298, Sodium Salt] is at least 60%.
Result :: Condition not met

Query :: Exam item: decide whether the reported inhibition at 1 µM for CSCC[C@H](NC(=O)c1ccc(NCc2c[nH]cn2)cc1-c1ccccc1)C(=O)O [Example 167, Hydrochloride] is at least 60%.
Result :: Condition met
